# Growth Rate per entry
# Tested on: HEK-293T
# experimental.protocol: Incucyte cell viability with HEK293T; note: unitless GR value; below 1 slowed growth and below 0 cell loss
# Type: toxicity, cell-based
# condition.details: human, 18 h, 10 µM, compound concentration 10 uM, replicate number 1
Lab note: jot the number down without any unit.

// solved cases for Growth Rate follow
Cc1nccn1-c1ccc(Sc2cccc(C3(C(N)=O)CCOCC3)c2)cc1 :: 0.41
CC(=O)Nc1nc2c(Oc3cc(-c4ccc(C(F)(F)F)cc4)ncn3)cccc2s1 :: 0.67

State, in one line, measured Growth Rate of "c1cc(-c2cnn3cc(-c4ccc(N5CCNCC5)cc4)cnc23)c2cccnc2c1"
-0.44

State, in one line, measured Growth Rate of "CC(C)(C)c1ccc(NC(=O)N2CCN(c3ncccc3Cl)CC2)cc1"
-0.12

State, in one line, measured Growth Rate of "Cn1c(=O)n(CCCO)c(=O)c2c1nc(Oc1cccc(OC(F)(F)F)c1)n2Cc1ccc(Cl)cc1"
0.98

----------
# Growth Rate per entry
# Test system: HEK-293T
# experimental.protocol: Incucyte cell viability with HEK293T; note: unitless GR value; below 1 slowed growth and below 0 cell loss
# Format: toxicity, cell-based
# condition.details: human, 6 h, 10 µM, compound concentration 10 uM, replicate number 1
Lab note: jot the number down without any unit.

// solved cases for Growth Rate follow
CN1C(=O)Cc2ccc(-c3ccc(C[C@@H](C#N)NC(=O)[C@@H]4N[C@H]5CC[C@@H]4C5)c(F)c3)cc21 :: 0.06
COc1ccc(CCN(C)CCCC(C#N)(c2cc(OC)c(OC)c(OC)c2)C(C)C)cc1OC.Cl (stereo not given) [GALLOPAMIL HYDROCHLORIDE] :: 0.31
CN(C)[C@H]1CCN(c2cc(C(F)(F)F)c(C#N)c(Nc3cccc(CCC(=O)O)c3)n2)C1.O=C(O)C(F)(F)F :: 0.73
CC(C)(c1ccc(O)cc1)c1ccc(O)cc1 :: 0.82
COc1ccccc1-n1nc(C2CC(C)(C)OC(C)(C)C2)cc1-c1ccc(Cl)cc1 :: -0.05
CC(C)(O)c1cnc(N2C[C@@]3(CCC[C@](C)(Cn4cnc5ccc(C#N)cc54)C3)OC2=O)cn1 :: -0.31
Cn1c(=O)n(CCCO)c(=O)c2c1nc(Oc1cccc(OC(F)(F)F)c1)n2Cc1ccc(Cl)cc1 :: 0.54
CC(C)n1cc(-c2ccc(N3CCN(C)CC3)c(NC(=O)c3ccc(-c4ccncc4)o3)c2)cn1 :: -0.65
c1ccc2c(-c3coc4cc(-c5ccc(N6CCNCC6)cc5)cnc34)ccnc2c1 :: -0.57

Now for another entry.
State, in one line, measured Growth Rate of "O=C(NC[C@@H]1[C@H]2CN(C(=O)OCc3cc(C(F)(F)F)cc(C(F)(F)F)c3)C[C@@H]12)c1ccc2[nH]nnc2c1"
-0.09

----------
# Test system: HEK-293T
# experimental.protocol: Incucyte cell viability with HEK293T; note: unitless GR value; below 1 slowed growth and below 0 cell loss
# Type: toxicity, cell-based
# condition.details: human, 6 h, 10 µM, compound concentration 10 uM, replicate number 1
# Growth Rate per entry
Lab note: jot the number down without any unit.

O=C(Nc1cccc(C(F)(F)F)c1)c1cccc(-n2cc(-c3ccco3)nn2)c1 :: 0.68

State, in one line, measured Growth Rate of "FC(F)(F)Oc1ccc(-c2ccc3nnc(C(F)(F)F)n3c2)cc1"
0.53

State, in one line, measured Growth Rate of "[2H]C([2H])([2H])NC(=O)c1nnc(NC(=O)C2CC2)cc1Nc1cccc(-c2ncn(C)n2)c1OC"
0.66

State, in one line, measured Growth Rate of "CSc1ccc(C[C@@H](C)C(=O)O)cc1Nc1nc(N2CC[C@H](N(C)C)C2)cc(C(F)F)c1C#N.O=C(O)C(F)(F)F"
0.25

State, in one line, measured Growth Rate of "CN[C@@H](C)C(=O)N[C@H](C(=O)N1CCC[C@H]1C(=O)Nc1sc(-c2ncco2)nc1-c1ccccc1)C1CCCCC1"
0.6

State, in one line, measured Growth Rate of "N#CN1CC[C@@H](C(=O)Nc2nc3c(s2)CN(C(=O)CN=[N+]=[N-])CC3)C1"
0.69

State, in one line, measured Growth Rate of "Cc1cc(SCc2sc(-c3ccc(C(F)(F)F)cc3)nc2C)ccc1OCC(=O)O"
0.99

State, in one line, measured Growth Rate of CN1[C@@H](CC(=O)c2ccccc2)CCC[C@H]1C[C@H](O)c1ccccc1.Cl [LOBELINE HYDROCHLORIDE]
0.43

State, in one line, measured Growth Rate of "O=C(Cc1ccccc1)Nc1nnc(N2CC[C@@H]3[C@H]2CN3c2cccnn2)s1"
0.31

State, in one line, measured Growth Rate of CCOC(=O)C1Cc2ccccc2CN1C(=O)c1ccc(SC)s1 (stereo unspecified)
0.05

State, in one line, measured Growth Rate of CCc1cnn2c(NCc3ccc[n+]([O-])c3)cc(N3CCCCC3CCO)nc12 (stereo unspecified)
-0.39
